Provenance of the data: PubChem BioAssay

# Tested on: Human papillomavirus type 1a E7 protein (residues 1-88)
# assay-remarks: HPV1a E7 small-molecule binders, primary screen, biochemical, small-molecule microarray, residues 1-88, 635 nm (AID 1129)
# recorded-conditions: small-molecule microarray binding, fluorescence 635 nm; higher = more signal
observable: composite z-score
Give the figure by itself; no unit, no explanation.

Returns the measured composite z-score for the input compound. Input: COc1ccc(NN2C(C(O)c3ccccn3)C=CC3C(=O)N(C4CCCCC4)C(=O)C32)cc1 (configuration not stated) 1.22

Returns the measured composite z-score for the input compound. Input: O=C1OC[C@@H](c2ccccc2)N2CC(/C=C/c3ccccc3)=CC12 (some centres not stated) 0.725

Returns the measured composite z-score for the input compound. Input: "COc1cc(CO)cc(I)c1O[C@H]1C=C(C(=O)NCCO)C[C@@H](N(CC2CCCCC2)C(=O)c2ccc(C(F)(F)F)cc2)[C@@H]1O" 0.621

Returns the measured composite z-score for the input compound. Input: "O=C1C[C@]2(c3ccc([N+](=O)[O-])cc3)C(=O)N(Cc3ccccc3)c3cc(CO)ccc3[C@H]2N1CC12CC3CC(CC(C3)C1)C2" -0.835

Returns the measured composite z-score for the input compound. Input: CC(C)CCC[C@@H](C)[C@H]1CC[C@@]2(C)C3=C(CC[C@]12C)[C@@]1(C)CC[C@H](OC(=O)c2ccc(Br)cc2)C(C)(C)C1CC3 (some centres not stated) 0.595

Returns the measured composite z-score for the input compound. Input: "CC(C)(C)OC(=O)CC[C@@]1(C(=O)O)N=C(c2ccc(OCCCO)cc2)O[C@@H]1c1ccccc1" 0.716

Returns the measured composite z-score for the input compound. Input: "O=C(CS)NCCCCCCNC(=O)[C@@H]1C[C@@H]2C(=O)N3CCC[C@H]3C(=O)N2[C@@H]1c1cccc(OCCO)c1" 1.13

Returns the measured composite z-score for the input compound. Input: "COCC(=C=CC[C@H](O)c1ccc(OCCO)cc1)C[C@H](O)COCc1ccccc1" 0.887

Returns the measured composite z-score for the input compound. Input: "COc1ccccc1CN1C(=O)c2ccccc2[C@](Cc2ccccc2I)(C(=O)NC(C)C)[C@@H]1c1ccc(CO)cc1" 1.24

Returns the measured composite z-score for the input compound. Input: "C=C(COC)/C(=C/C[C@@H](OC(=O)c1ccncc1)c1ccc(CO)o1)c1cnc2ccccc2c1" 1.22

Returns the measured composite z-score for the input compound. Input: "COCCOC(=O)N1C(=O)[C@@]2(c3cc(C#CC4(O)CCCCCC4)ccc31)[C@H](C(N)=O)[C@H]1C(=O)O[C@H](c3ccccc3)[C@H](c3ccccc3)N1[C@@H]2c1ccc(O)cc1" 1.17

Returns the measured composite z-score for the input compound. Input: "COc1ccc([Si](C)(C)[C@H]2[C@H](CCn3cc(CCO)nn3)O[C@@]3(C(=O)N(Cc4ccc(N5C(=O)c6cccc7cccc5c67)cc4)c4ccccc43)[C@@H]2C)cc1" 1.2

Returns the measured composite z-score for the input compound. Input: "CC(C)CN1C(=O)[C@@]2(Cc3ccccc31)c1ccccc1C(=O)N(Cc1ccccc1C(F)(F)F)[C@H]2c1ccc(CO)cc1" -1.18

Returns the measured composite z-score for the input compound. Input: "COC(=O)[C@H](Cc1ccccc1)N1CC(/C=C/C2CC2)=C[C@@H]1[C@@H](O)Cc1ccccc1" 1.14

Returns the measured composite z-score for the input compound. Input: CC[C@@H]1[C@H]2C3C(=O)N(CC)C(=O)C3CC(=O)[C@H]2[C@H](c2ccc(C)cc2)N1S(=O)(=O)c1ccc(C)cc1 (some centres not stated) 1.1

Returns the measured composite z-score for the input compound. Input: O=C1NC(=O)C2C1C=CC(C(O)c1ccc3c(c1)OCO3)N2Nc1ccccn1 (configuration not stated) 0.256

Returns the measured composite z-score for the input compound. Input: "CCCN1C(=O)[C@]2(Cc3ccccc3)N=C(c3ccc(OCCCO)cc3)O[C@@H]2c2ccccc21" 1.22

Returns the measured composite z-score for the input compound. Input: "NCCCCCCNC(=O)[C@@H]1C[C@@H]2C(=O)N3CCC[C@H]3C(=O)N2[C@@H]1c1ccc(O)cc1" 1.18

Returns the measured composite z-score for the input compound. Input: "[N-]=[N+]=Nc1ccccc1C[C@]1(C(=O)NCc2ccccc2)N=C(c2ccc(OCCCO)cc2)O[C@H]1c1ccccc1" 1.24

Returns the measured composite z-score for the input compound. Input: Cc1ccc(C(C)CC(O)C2C=CC3C(=O)N(c4ccccc4)C(=O)C3N2Nc2ccc(C(C)C)cc2)o1 (configuration not stated) 1.16

Returns the measured composite z-score for the input compound. Input: CCOC(=CC(=O)OC)CC(O)c1cccc(Cl)c1 (configuration not stated) 1.15

Returns the measured composite z-score for the input compound. Input: "CCCC[C@@H]1C[C@H]1[C@@H](NC(=O)c1cccnc1)c1ccc(-c2ccccc2)cc1" -0.647
